B1: Twister Ribozyme (parent)
chain: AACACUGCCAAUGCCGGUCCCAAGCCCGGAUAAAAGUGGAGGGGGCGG

# Variants of: B1
# assayComment: self-cleavage, relative activity (ratio to wild type); higher = more cleavage; co-transcriptional
measuredProperty: self-cleavage

| change | self-cleavage |
| --- | --- |
| C3G G42C | 0.128 |
| C27U G29C | 0.124 |
| C19U A34G | 0.601 |
| C26U G45C | 0.0973 |
| C21A A23C | 0.109 |
| C20G C46A | 0.12 |
| A33C U37G | 0.626 |
| G13U G47U | 0.197 |

Item under review: U12G A23G . Reported self-cleavage?
0.502

Item under review: C3U G42A . Reported self-cleavage?
0.0772

Item under review: C9U A35G . Reported self-cleavage?
0.615
